System: Rattus norvegicus
Test: Oral bioavailability in fasted Sprague-Dawley rat assessed as ertapenem level at 10 mg/kg dosed through intraduodenal route by LC-MS/MS method
Type: ADME, organism-based
Details: in vivo
measurement-type: F (%)

CC(C)c1oc(=O)oc1COC(=O)C1=C(S[C@@H]2CN[C@H](C(=O)Nc3cccc(C(=O)OCc4oc(=O)oc4C(C)C)c3)C2)[C@H](C)[C@@H]2[C@@H]([C@@H](C)O)C(=O)N12; 0.9

I: C[C@@H](O)[C@H]1C(=O)N2C(C(=O)OCc3oc(=O)oc3C(C)(C)C)=C(S[C@@H]3CN[C@H](C(=O)Nc4cccc(C(=O)OCc5oc(=O)oc5C(C)(C)C)c4)C3)[C@H](C)[C@H]12
II: C[C@@H](O)[C@H]1C(=O)N2C(C(=O)[O-])=C(S[C@@H]3CN[C@H](C(=O)Nc4cccc(C(=O)O)c4)C3)[C@H](C)[C@H]12.O.[Na+]
For this pair, I and II , which shows a numerically higher F? // caller expects the label of the chosen entry
II
(II: 0.7%, I: 0.3%)

###

Experiment: AUC (0 to 8 hrs) in fasted Beagle dog at 10 mg/kg dosed through intraduodenal route by LC-MS/MS method
Assay type: ADME, organism-based, Canis lupus familiaris, Plasma
Design: time < 8 hr, dose 10 mg/kg, route intraduodenal
Conditions: Beagle, plasma
measurement-type: AUC(0-t) at 8 h (µM·h)

COC(=O)C1=C(S[C@@H]2CN[C@H](C(=O)Nc3cccc(C(=O)OC)c3)C2)[C@H](C)[C@@H]2[C@@H]([C@@H](C)O)C(=O)N12; 0.8

P: CCCOC(=O)C1=C(S[C@@H]2CN[C@H](C(=O)Nc3cccc(C(=O)OCCC)c3)C2)[C@H](C)[C@@H]2[C@@H]([C@@H](C)O)C(=O)N12
Q: C[C@@H](O)[C@H]1C(=O)N2C(C(=O)OCC(F)(F)F)=C(S[C@@H]3CN[C@H](C(=O)Nc4cccc(C(=O)OCC(F)(F)F)c4)C3)[C@H](C)[C@H]12
Compare AUC(0-t) at 8 h: is it lower for P or for Q ? # reply format: chosen label
Q
(Q: 0.2 µM·h, P: 1 µM·h)

###

Test: Stability in pH 7.4 phosphate buffer assessed as compound remaining at 50 uM after 3 hrs by LC-MS/MS method
Assay type: physicochemical
Details: read-out: Stability
Entries and their remaining at 3 h, 50 µM values follow.

# count of solved cases: 8
CCOC(=O)C1=C(S[C@@H]2CN[C@H](C(=O)Nc3cccc(C(=O)OCC)c3)C2)[C@H](C)[C@@H]2[C@@H]([C@@H](C)OC(C)=O)C(=O)N12; > 95%
CCOC(=O)c1cccc(NC(=O)[C@@H]2C[C@H](SC3=C(C(=O)O)N4C(=O)[C@H]([C@@H](C)O)[C@H]4[C@H]3C)CN2)c1; > 95%
CC(C)OC(=O)OCOC(=O)C1=C(S[C@@H]2CN[C@H](C(=O)Nc3cccc(C(=O)OCOC(=O)OC(C)C)c3)C2)[C@H](C)[C@@H]2[C@@H]([C@@H](C)O)C(=O)N12; > 95%
C[C@@H](O)[C@H]1C(=O)N2C(C(=O)OCc3oc(=O)oc3C(C)(C)C)=C(S[C@@H]3CN[C@H](C(=O)Nc4cccc(C(=O)OCc5oc(=O)oc5C(C)(C)C)c4)C3)[C@H](C)[C@H]12; > 95%
CCOC(=O)C1=C(S[C@H]2C[C@@H](C(=O)Nc3cccc(C(=O)OCC)c3)N(Cc3oc(=O)oc3C)C2)[C@H](C)[C@@H]2[C@@H]([C@@H](C)O)C(=O)N12; > 95%
CC(C)OC(=O)c1cccc(NC(=O)[C@@H]2C[C@H](SC3=C(C(=O)O)N4C(=O)[C@H]([C@@H](C)O)[C@H]4[C@H]3C)CN2)c1; > 95%
CC(C)c1oc(=O)oc1COC(=O)C1=C(S[C@@H]2CN[C@H](C(=O)Nc3cccc(C(=O)OCc4oc(=O)oc4C(C)C)c3)C2)[C@H](C)[C@@H]2[C@@H]([C@@H](C)O)C(=O)N12; > 95%
CC(C)OC(=O)OCOC(=O)C1=C(S[C@@H]2CN[C@H](C(=O)Nc3cccc(C(=O)O)c3)C2)[C@H](C)[C@@H]2[C@@H]([C@@H](C)O)C(=O)N12; > 95%

Okay, now this compound:
Requested read-out: remaining at 3 h, 50 µM. Entry: CC(OC(=O)C1=C(S[C@@H]2CN[C@H](C(=O)Nc3cccc(C(=O)OC(C)OC(=O)C(C)(C)C)c3)C2)[C@H](C)[C@@H]2[C@@H]([C@@H](C)O)C(=O)N12)OC(=O)C(C)(C)C (some centres undefined)
> 95%
